src = ChEMBL document CHEMBL1961873

Biological target: Aurora kinase B (Homo sapiens);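 also: reported values are averaged percent inhibition of Aurora B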
Settings: at 0.1 µM
Measured inhibition, listed per entry.
Give just the number in %; leave the unit off.

Give the value of inhibition reported for the following: O=C(NCC1CC1)c1ccc(-c2cccc(C(=O)NC3CC3)c2)cc1
2.04

State, in one line, measured inhibition of COc1cc(Nc2ncc3c(C)nc(-c4cccc(C(F)(F)F)c4)n3n2)cc(OC)c1OC
4.06

Indicate its recorded inhibition; the compound in question is Fc1ccc(-c2c(-c3ccncc3)nc3n2CCS3)cc1
-0.21

Return the recorded inhibition value; entry: N#Cc1ccc(Oc2nccc(-c3c(-c4ccc(F)cc4)ncn3C3CCNCC3)n2)cc1
3.58

For the compound COc1ccc2cc(-c3c(-c4ccncc4)nc(-c4ccc([S+](C)[O-])cc4C)n3C)ccc2c1 (stereo not given) , give its reported inhibition.
2.96
